The origin of these recorded values is patent US20240335427A1.

Reported pIC50 values follow for various compounds
measured-on: UCHL1 (Homo sapiens (Human), UniProt P09936)
Sequence (P09936 whole entry, species assumed): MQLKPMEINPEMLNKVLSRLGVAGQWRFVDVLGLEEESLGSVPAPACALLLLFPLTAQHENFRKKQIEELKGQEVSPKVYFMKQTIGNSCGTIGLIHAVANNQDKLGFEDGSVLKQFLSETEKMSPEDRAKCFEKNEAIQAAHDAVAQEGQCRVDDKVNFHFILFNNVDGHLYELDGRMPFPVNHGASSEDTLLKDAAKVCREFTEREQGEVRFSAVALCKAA
Lab note — pIC50 values are minus log10 of concentrations in M.

Below, each entry is followed by its recorded pIC50 result.
1) N#CN1CC(CNC(=O)c2nc3ccccc3s2)C1	4.00
2) N#CN1CCc2cc(NC(=O)c3nc4ccccc4s3)ccc21	4.00
3) N#CN1CC[C@@H](C(=O)Nc2cn(Cc3ccccc3)cn2)C1	5.70

[ask] Recorded pIC50 of `N#CN1CC[C@H](C(=O)Nc2nc3ccc(Br)nc3s2)C1` , please.
[reply] 5.70

[ask] Recorded pIC50 of `Cc1noc(C)c1-c1ccc2nc(NC(=O)[C@H]3CCN(CC#N)C3)sc2c1` , please.
[reply] 4.00

###

Reported IC50 values follow for various compounds
measured-on: JOSD1 (Homo sapiens (Human))
assay-procedure: In vitro JOSD1 activity assay (biochemical IC50, purified enzyme)
condition-info: read-out: JOSD1 IC50
Supply the numeric figure in nM, leaving out any unit text.

Below, each entry is followed by its recorded IC50 result.
1) N#CN1CC[C@H](C(=O)Nc2ccc3c(cnn3Cc3ccccc3)c2)C1	160
2) N#CN1CC[C@H](C(=O)Nc2nc3ccc(-c4c[nH]nc4C(F)(F)F)cc3s2)C1	520
3) N#CN1CC[C@H](C(=O)Nc2nc3ccccc3[nH]2)C1	1370

[ask] Recorded IC50 of `N#CN1CCC[C@H](C(=O)Nc2cn(Cc3ccccc3)cn2)C1` , please.
[reply] 6230

[ask] Recorded IC50 of `N#CN1CC(CNC(=O)c2nc3ccccc3s2)C1` , please.
[reply] 11300

[ask] Recorded IC50 of `N#CN1CC[C@H](C(=O)Nc2nc3ccccc3o2)C1` , please.
[reply] 4850

[ask] Recorded IC50 of `Cc1cccc2sc(NC(=O)[C@H]3CCN(C#N)C3)nc12` , please.
[reply] 380

[ask] Recorded IC50 of `Cc1noc(C)c1-c1ccc2sc(NC(=O)[C@H]3CCN(C#N)C3)nc2c1` , please.
[reply] 45

[ask] Recorded IC50 of `CCn1cc(-c2ccc3nc(NC(=O)[C@@H]4CCN(C#N)C4)sc3c2)cn1` , please.
[reply] 82

###

measured-on: JOSD1 (Homo sapiens (Human), UniProt Q15040)
assay-procedure: In vitro JOSD1 activity assay (biochemical IC50, purified enzyme)
condition-info: read-out: JOSD1 IC50
parameter: log10 IC50 (log10 of the value in nM)
log10 IC50, nM

Below, each entry is followed by its recorded log10 IC50 result.
1. N#CN1CC(C(=O)Nc2nc3ccc(Br)cc3s2)C1	3.29
2. N#CN1CC[C@H](C(=O)Nc2nc3n(n2)CCN(Cc2ccccc2)C3)C1	3.15
3. N#CN1CC[C@H](C(=O)Nc2nc3n(n2)CCN(C(=O)c2ccccc2)C3)C1	3.53

[ask] Recorded log10 IC50 of `Cc1sc(N(C)C(=O)[C@@H]2CCCN2C#N)nc1-c1cccc(C#N)n1` , please.
[reply] 3.33

[ask] Recorded log10 IC50 of N#CN1CCC(C(=O)Nc2nc3ccc(C4CC4)cc3s2)C1 (stereo in doubt) , please.
[reply] 2.00

###

Reported pIC50 values follow for various molecules
measured-on: JOSD1 (Homo sapiens (Human))
assay-procedure: In vitro JOSD1 activity assay (biochemical IC50, purified enzyme)
condition-info: read-out: JOSD1 IC50
Lab note — pIC50 values are minus log10 of concentrations in M.

Below, each entry is followed by its recorded pIC50 result.
1. Cc1noc(C)c1-c1ccc2nc(NC(=O)c3ccnc(C#N)n3)sc2c1	5.19
2. C#CCNC(=O)c1ccc(-c2cnc(NC(=O)[C@H]3CCN(C#N)C3)s2)cc1	5.08
3. N#CN1CC[C@@H](C(=O)Nc2nc3ccc(-c4ccc(-c5ccccc5)cc4)cc3s2)C1	6.57

[ask] Notebook: pull reported pIC50 for JOSD1 (Homo sapiens (Human)), entry `Cc1noc(C)c1-c1ccc2nc(NC(=O)C3CCN(C#N)CC3)sc2c1`
[reply] 5.56

[ask] Notebook: pull reported pIC50 for JOSD1 (Homo sapiens (Human)), entry `N#CN1CCc2cc(NC(=O)c3nc4ccccc4s3)ccc21`
[reply] 5.22

[ask] Notebook: pull reported pIC50 for JOSD1 (Homo sapiens (Human)), entry `Cc1noc(C)c1-c1ccc2nc(NC(=O)[C@@H]3CCN(C#N)C3)sc2c1`
[reply] 6.16

[ask] Notebook: pull reported pIC50 for JOSD1 (Homo sapiens (Human)), entry `N#CN1CC[C@H](C(=O)Nc2ccn(Cc3ccccc3)c2)C1`
[reply] 6.03

[ask] Notebook: pull reported pIC50 for JOSD1 (Homo sapiens (Human)), entry N#CN1CCC(C(=O)Nc2nc3c(s2)CN(C(=O)c2ccccc2)CC3)C1 (stereo not drawn)
[reply] 5.96

[ask] Notebook: pull reported pIC50 for JOSD1 (Homo sapiens (Human)), entry `N#CN1CC[C@H](C(=O)Nc2cnn(Cc3ccccc3)c2)C1`
[reply] 5.96

###

measured-on: UCHL1 (Homo sapiens (Human), UniProt P09936)
parameter: pIC50
Lab note — pIC50 values are minus log10 of concentrations in M.

Below, each entry is followed by its recorded pIC50 result.
1) N#CN1CC[C@H](C(=O)Nc2cn(Cc3ccccc3)cn2)C1 [Compound 32]	6.98
2) N#CN1CC[C@H](C(=O)Nc2cn(C3CCCN(C(=O)c4ccccc4)C3)cn2)C1 (stereo partly shown) [Compound 38]	7.05
3) Cc1noc(C)c1-c1ccc2nc(NC(=O)[C@H]3CCN(C#N)C3)sc2c1 [Compound 12]	7.00

[ask] Notebook: pull reported pIC50 for UCHL1 (Homo sapiens (Human), UniProt P09936), entry N#CN1CCC[C@H](C(=O)Nc2cn(Cc3ccccc3)cn2)C1 [Compound 42]
[reply] 5.97

###

measured-on: JOSD1 (Homo sapiens (Human), UniProt Q15040)
assay-procedure: In vitro JOSD1 activity assay (biochemical IC50, purified enzyme)
condition-info: read-out: JOSD1 IC50
Reported IC50 values follow for various compounds
Supply the numeric figure in nM, leaving out any unit text.

Below, each entry is followed by its recorded IC50 result.
1) Cc1noc(C)c1-c1ccc2nc(NC(=O)[C@H]3CCN(CC#N)C3)sc2c1	5680
2) N#CN1CC[C@H](C(=O)Nc2nc3ccc(Br)nc3s2)C1	288

[ask] Recorded IC50 of N#CN1CC[C@H](C(=O)Nc2cn(C3CCCN(C(=O)c4ccccc4)C3)cn2)C1 (stereo partly shown) , please.
[reply] 4150

[ask] Recorded IC50 of `Cc1noc(C)c1-c1cccc2sc(NC(=O)[C@H]3CCN(C#N)C3)nc12` , please.
[reply] 74

[ask] Recorded IC50 of `N#CN1CC[C@H](C(=O)Nc2cn(-c3ccccc3)cn2)C1` , please.
[reply] 1220

[ask] Recorded IC50 of `Cc1noc(C)c1-c1ccc2nc(NC(=O)[C@H]3CCN(C#N)C3)sc2c1` , please.
[reply] 244

[ask] Recorded IC50 of `Cc1noc(C)c1-c1ccc2cnc(NC(=O)[C@H]3CCN(C#N)C3)cc2c1` , please.
[reply] 460

###

measured-on: UniProtKB Q15040
assay-procedure: In vitro JOSD1 activity assay (biochemical IC50, purified enzyme)
condition-info: read-out: JOSD1 IC50
Reported pIC50 values follow for various molecules
Lab note — pIC50 values are minus log10 of concentrations in M.

Below, each entry is followed by its recorded pIC50 result.
1. N#CN1CC[C@H](C(=O)Nc2nc(-c3ccccc3)cs2)C1	6.80
2. N#CN1CC[C@H](NC(=O)c2nc3ccccc3s2)C1	6.37

Now take the following molecule into account.
[ask] Recorded pIC50 of `Cc1noc(C)c1-c1ccc2nc(NC(=O)[C@H]3CCN(C#N)C3)sc2n1` , please.
[reply] 6.38
